- Tested on: Aβ42
- Assay Explanation: Screening for γ-secretase-modulating activity, Method 2: Aβ42 Alphalisa on SKNBE2 cell supernatant
- Format: cell-based
- Condition Set: Method 2, Table 3c, SKNBE2 cells carrying APP 695 wild type, overnight incubation
Binarize IC50 at 40 nM; below is Criterion met, at or above is Criterion not met.

{"Input Smiles": "COc1cc(Nc2nccc3c2nc(-c2ccc(F)cc2)n3C)ccc1-n1cnc(C)n1", "Experimental System": "Aβ42", "Class Label": "Criterion not met"}
{"Input Smiles": "COc1nc(Nc2cccc3c2nc(-c2ccc(F)cc2)n3C)ccc1-n1cnc(C)n1", "Experimental System": "Aβ42", "Class Label": "Criterion met"}
{"Input Smiles": "COc1nc(Nc2cccc3c2nc(-c2ccccc2OC(F)(F)F)n3C)ccc1-n1cnc(C)c1", "Experimental System": "Aβ42", "Class Label": "Criterion met"}
{"Input Smiles": "COc1nc(Nc2cccc3c2nc(-c2cccc(OC(F)(F)F)c2)n3C)ccc1-n1cnc(C)c1", "Experimental System": "Aβ42", "Class Label": "Criterion met"}

Q: API: query returns whether the compound falls strictly under 40 nM in IC50. Query: Cc1cn(-c2ccc(Nc3ccnc4c3nc(-c3ccc(F)cc3)n4C)cc2F)cn1
Ans: Criterion not met

Q: Take the compound COc1nc(Nc2ccnc3c2nc(-c2ccc(F)cc2)n3C)ccc1-n1cnc(C)c1 and say whether its IC50 is less than 40 nM.
Ans: Criterion met

Q: Report whether reported IC50 is lower than 40 nM (strictly) for COc1cc(-c2nc3c(Nc4ccc(-n5cnc(C)c5)c(F)c4)nc(C)cc3n2C)ccc1Cl
Ans: Criterion met

Q: Input Cc1cn(-c2ccc(Nc3cc(F)cc4c3nc(-c3ccc(F)cc3)n4C(C)C)cc2F)cn1 ; condition: IC50 strictly below 40 nM. Does it hold?
Ans: Criterion met
